Hi there, I'd appreciate the recorded pest or weed control at 125 g/ha for every entry that follows.
- Test system: Kochia (Kochia scoparia)
- Procedure summary: Test A preemergence
- Format: in vivo
- Measurement context: Bassia scoparia, pre-emergence, 240 h, 125 g ai/ha, preemergence; 0 to 100 scale where 0 is no effect and 100 is complete control; approx. 10 d; read-out: Kochia plant response rating
- Description: […]
Number only, in %; omit the unit.

So what does the record say about pest or weed control at 125 g/ha for O=C1NC[C@H](c2ccc(F)c(OC(F)(F)C(F)F)c2)[C@H]1C(=O)Nc1cccc(F)c1F [Compound 1131] ?
100

Please look up its pest or weed control at 125 g/ha: CN1C[C@H](c2csc3c2CCOC3)[C@@H](C(=O)Nc2ccc(F)c(F)c2F)C1=O [Compound 1077]
20

Looking for the measured pest or weed control at 125 g/ha of CON1CC[C@H](c2cccc(C(F)(F)F)c2)[C@@H](C(=O)Nc2ccccc2C(F)(F)F)C1=O [Compound 1172] , can you help?
0

Which pest or weed control at 125 g/ha value belongs to CN1C[C@H](c2ccc3c(c2)OCO3)[C@@H](C(=O)Nc2cccc(F)c2F)C1=O [Compound 1126] ?
70

----------
- Tested on: ryegrass, Italian (Italian ryegrass, Lolium multiflorum)
- Procedure summary: Test A preemergence
- Type: in vivo
- Measurement context: Lolium multiflorum, pre-emergence, 240 h, 125 g ai/ha, preemergence; 0 to 100 scale where 0 is no effect and 100 is complete control; approx. 10 d; read-out: Ryegrass, Italian plant response rating
Assay endpoint: pest or weed control at 125 g/ha

Fill in the blank: the reported pest or weed control at 125 g/ha of `CN1C[C@H](c2cscn2)[C@@H](C(=O)Nc2ccccc2F)C1=O` is ____.
0%

Look at this compound and give its reported pest or weed control at 125 g/ha. CN1CC(c2cccc(Br)c2)C(C(=O)Nc2ccccc2F)C1=O (centres unmarked)
30%

Given the compound `Cc1ccc([C@H]2CN(C)C(=O)[C@@H]2C(=O)Nc2cnccc2C(F)(F)F)cc1` , what is its reported pest or weed control at 125 g/ha?
70%

Which pest or weed control at 125 g/ha is listed for `CN1C[C@H](c2cc(C(F)F)cs2)[C@@H](C(=O)Nc2ccccc2F)C1=O` ?
20%

What pest or weed control at 125 g/ha value was documented for this compound, CN1C[C@H](c2ccc(F)c(F)c2)[C@@H](C(=S)Nc2ccccc2F)C1=O (racemic) ?
30%

// query pest or weed control at 125 g/ha value for entry `CON1CC[C@H](c2ccc(C(F)(F)F)cc2)[C@@H](C(=O)Nc2ccc(F)c(F)c2F)C1=O`
0%

Which pest or weed control at 125 g/ha reading was recorded for the compound `CON1CC[C@H](c2cccc(C(F)(F)F)c2)[C@@H](C(=O)Nc2ccccc2C(F)(F)F)C1=O` ?
0%

# pest or weed control at 125 g/ha lookup, item `Cc1cc([C@H]2CN(C)C(=O)[C@@H]2C(=O)Nc2ccc(F)cc2F)ccc1Br`
0%

----------
- System: Kochia (Kochia scoparia)
- Procedure summary: Test A postemergence
- Assay type: in vivo
- Measurement context: Postemergence, 500 g ai/ha; 0 to 100 scale where 0 is no effect and 100 is complete control
Please provide measured Plant response rating, Kochia for the entries that follow.
Please reply with the number alone, leaving off any unit.

Bench note: what Plant response rating, Kochia did COCc1cccc(C2CNC(=O)C2C(=O)Nc2ccccc2F)c1 (stereo not shown) show?
0

Entry COc1c(F)ccc(NC(=O)C2C(=O)NCC2c2cccc(OC(F)(F)C(F)F)c2)c1F (racemic) has what Plant response rating, Kochia?
0

Endpoint output: Plant response rating, Kochia of CCc1cccc(C2CN(C)C(=O)C2C(=O)Nc2cccc(F)c2F)c1 (stereo not shown) . Value?
70

Given the entry CCc1ccc(C2CNC(=O)C2C(=O)Nc2cccc(F)c2F)cc1 (stereo not shown) , report its measured Plant response rating, Kochia.
0
